Give measured anti-factor Xa activity in the supernatant for each item. Keep answers brief.
target: UniProt P02701; test: Neutralization with avidin: avidin-coated beads, centrifugation, anti-factor Xa activity assayed in supernatant; assay type: binding; conditions: 0.00005 μg product/μg avidin, after centrifugation
Structures can show the parent of a compound that is named as a salt.
Supply the numeric figure in %, leaving out any unit text.

**Q:** Need anti-factor Xa activity in the supernatant, item COC1OC(COS(=O)(=O)O)C(OC2OC(C(=O)O)C(OC3OC(COS(=O)(=O)O)C(OC4OC(C(=O)O)C(OC5OC(COS(=O)(=O)O)C(OC)C(OC)C5NC(=O)CCCCCOCCCCCC5SCC6NC(=O)NC65)C(OC)C4OC)C(OS(=O)(=O)O)C3OS(=O)(=O)O)C(OC)C2OC)C(OS(=O)(=O)O)C1OS(=O)(=O)O (stereo not drawn) [Compound 1, sodium salt]
**A:** 1.3

**Q:** Check COC1OC(COS(=O)(=O)O)C(OC2OC(C(=O)O)C(OC3OC(COS(=O)(=O)O)C(OC4OC(C(=O)O)C(OC5OC(COS(=O)(=O)O)C(OC)C(OC)C5NC(=O)CCCCNC(=O)NCCCCC5SCC6NC(=O)NC65)C(OC)C4OC)C(OS(=O)(=O)O)C3OS(=O)(=O)O)C(OC)C2OC)C(OS(=O)(=O)O)C1OS(=O)(=O)O (stereo not drawn) [Compound 4, sodium salt] too.
**A:** 3.6

**Q:** Check COC1OC(COS(=O)(=O)O)C(OC2OC(C(=O)O)C(OC3OC(COS(=O)(=O)O)C(OC4OC(C(=O)O)C(OC5OC(COS(=O)(=O)O)C(OC)C(OC)C5NC(=O)CCCCCNC(=O)CCCCC5SCC6NC(=O)NC65)C(OC)C4OC)C(OS(=O)(=O)O)C3OS(=O)(=O)O)C(OC)C2OC)C(OS(=O)(=O)O)C1OS(=O)(=O)O (stereo not drawn) [Idrabiotaparinux, idrabiotaparinux, reference compound] too.
**A:** 1.2

----------
target: avidin (Gallus gallus, UniProt P02701); assay: Neutralization with avidin: avidin-coated beads, centrifugation, anti-factor Xa activity assayed in supernatant; type: binding; details: 0.00005 μg product/μg avidin, after centrifugation
Sequence (P02701 25-152, species assumed): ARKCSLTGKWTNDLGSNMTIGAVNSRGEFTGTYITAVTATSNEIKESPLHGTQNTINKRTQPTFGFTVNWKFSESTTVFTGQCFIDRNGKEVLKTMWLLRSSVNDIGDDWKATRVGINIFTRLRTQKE
Structures can show the parent of a compound that is named as a salt.
Give measured anti-factor Xa activity in the supernatant for each item. Keep answers brief.
Supply the numeric figure in %, leaving out any unit text.

**Q:** Need anti-factor Xa activity in the supernatant, item COC1OC(COS(=O)(=O)O)C(OC2OC(C(=O)O)C(OC3OC(COS(=O)(=O)O)C(OC4OC(C(=O)O)C(OC5OC(COS(=O)(=O)O)C(OC)C(OC)C5NC(=O)CCCCCN(C)C(=O)CCCCC5SCC6NC(=O)NC65)C(OC)C4OC)C(OS(=O)(=O)O)C3OS(=O)(=O)O)C(OC)C2OC)C(OS(=O)(=O)O)C1OS(=O)(=O)O (centres unmarked) [Compound 3, sodium salt]
**A:** 0.7

**Q:** Check COC1OC(COS(=O)(=O)O)C(OC2OC(C(=O)O)C(OC3OC(COS(=O)(=O)O)C(OC4OC(C(=O)O)C(OC5OC(COS(=O)(=O)O)C(OC)C(OC)C5NC(=O)CCCCCN(C)CCCCCC5SCC6NC(=O)NC65)C(OC)C4OC)C(OS(=O)(=O)O)C3OS(=O)(=O)O)C(OC)C2OC)C(OS(=O)(=O)O)C1OS(=O)(=O)O (centres unmarked) [Compound 2, sodium salt] too.
**A:** 4.9

----------
target: coagulation factor Xa, in the presence of antithrombin (Homo sapiens, UniProt P01008); experiment: Antithrombin-dependent anti-factor Xa activity (in vitro inhibition of coagulation factor Xa); type: biochemical; conditions: read-out: IC50 (dose enabling 50% inhibition), anti-Xa activity (converted)
Sequence (P01008 33-464): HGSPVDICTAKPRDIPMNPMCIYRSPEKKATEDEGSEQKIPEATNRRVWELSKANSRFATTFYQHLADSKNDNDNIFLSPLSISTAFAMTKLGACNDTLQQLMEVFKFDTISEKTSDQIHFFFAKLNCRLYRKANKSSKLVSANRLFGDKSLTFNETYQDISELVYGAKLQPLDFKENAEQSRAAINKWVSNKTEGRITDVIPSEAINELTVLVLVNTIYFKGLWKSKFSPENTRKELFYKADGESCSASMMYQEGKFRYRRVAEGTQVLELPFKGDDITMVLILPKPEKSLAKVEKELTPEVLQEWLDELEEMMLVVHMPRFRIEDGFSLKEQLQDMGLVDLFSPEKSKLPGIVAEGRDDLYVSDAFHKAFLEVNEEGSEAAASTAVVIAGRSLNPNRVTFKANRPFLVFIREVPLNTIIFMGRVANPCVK
Structures can show the parent of a compound that is named as a salt.
Give measured IC50 for each item. Keep answers brief.
Supply the numeric figure in nM, leaving out any unit text.

**Q:** Value wanted: IC50 (coagulation factor Xa, in the presence of antithrombin (Homo sapiens, UniProt P01008)) of entry COC1OC(COS(=O)(=O)O)C(OC2OC(C(=O)O)C(OC3OC(COS(=O)(=O)O)C(OC4OC(C(=O)O)C(OC5OC(COS(=O)(=O)O)C(OC)C(OC)C5NC(=O)CCCCNC(=O)NCCCCC5SCC6NC(=O)NC65)C(OC)C4OC)C(OS(=O)(=O)O)C3OS(=O)(=O)O)C(OC)C2OC)C(OS(=O)(=O)O)C1OS(=O)(=O)O (centres unmarked) [Compound 4, sodium salt]
**A:** 9.22

**Q:** Check COC1OC(COS(=O)(=O)O)C(OC2OC(C(=O)O)C(OC3OC(COS(=O)(=O)O)C(OC4OC(C(=O)O)C(OC5OC(COS(=O)(=O)O)C(OC)C(OC)C5NC(=O)CCCCCN(C)C(=O)CCCCC5SCC6NC(=O)NC65)C(OC)C4OC)C(OS(=O)(=O)O)C3OS(=O)(=O)O)C(OC)C2OC)C(OS(=O)(=O)O)C1OS(=O)(=O)O (centres unmarked) [Compound 3, sodium salt] too.
**A:** 9.53

**Q:** Check COC1OC(COS(=O)(=O)O)C(OC2OC(C(=O)O)C(OC3OC(COS(=O)(=O)O)C(OC4OC(C(=O)O)C(OC5OC(COS(=O)(=O)O)C(OC)C(OC)C5NC(=O)CCCCCNC(=O)CCCCC5SCC6NC(=O)NC65)C(OC)C4OC)C(OS(=O)(=O)O)C3OS(=O)(=O)O)C(OC)C2OC)C(OS(=O)(=O)O)C1OS(=O)(=O)O (centres unmarked) [Idrabiotaparinux, idrabiotaparinux, reference compound] too.
**A:** 9.49

**Q:** Check COC1OC(COS(=O)(=O)O)C(OC2OC(C(=O)O)C(OC3OC(COS(=O)(=O)O)C(OC4OC(C(=O)O)C(OC5OC(COS(=O)(=O)O)C(OC)C(OC)C5NC(=O)CCCCCOCCCCCC5SCC6NC(=O)NC65)C(OC)C4OC)C(OS(=O)(=O)O)C3OS(=O)(=O)O)C(OC)C2OC)C(OS(=O)(=O)O)C1OS(=O)(=O)O (centres unmarked) [Compound 1, sodium salt] too.
**A:** 10

**Q:** Check COC1OC(COS(=O)(=O)O)C(OC2OC(C(=O)O)C(OC3OC(COS(=O)(=O)O)C(OC4OC(C(=O)O)C(OC5OC(COS(=O)(=O)O)C(OC)C(OC)C5NC(=O)CCCCCN(C)CCCCCC5SCC6NC(=O)NC65)C(OC)C4OC)C(OS(=O)(=O)O)C3OS(=O)(=O)O)C(OC)C2OC)C(OS(=O)(=O)O)C1OS(=O)(=O)O (centres unmarked) [Compound 2, sodium salt] too.
**A:** 9.93

----------
Biological target: avidin (Gallus gallus)
Assay: Neutralization with avidin: avidin-coated beads, centrifugation, anti-factor Xa activity assayed in supernatant
Type: binding
Conditions: 0.001 μg product/μg avidin, after centrifugation
Description: The resulting mixture is centrifuged and the anti-factor Xa activity is assayed in the supernatant.
Structures can show the parent of a compound that is named as a salt.
Give measured anti-factor Xa activity in the supernatant for each item. Keep answers brief.
Supply the numeric figure in %, leaving out any unit text.

**Q:** Need anti-factor Xa activity in the supernatant, item COC1OC(COS(=O)(=O)O)C(OC2OC(C(=O)O)C(OC3OC(COS(=O)(=O)O)C(OC4OC(C(=O)O)C(OC5OC(COS(=O)(=O)O)C(OC)C(OC)C5NC(=O)CCCCCOCCCCCC5SCC6NC(=O)NC65)C(OC)C4OC)C(OS(=O)(=O)O)C3OS(=O)(=O)O)C(OC)C2OC)C(OS(=O)(=O)O)C1OS(=O)(=O)O (centres unmarked) [Compound 1, sodium salt]
**A:** 6.0

**Q:** Check COC1OC(COS(=O)(=O)O)C(OC2OC(C(=O)O)C(OC3OC(COS(=O)(=O)O)C(OC4OC(C(=O)O)C(OC5OC(COS(=O)(=O)O)C(OC)C(OC)C5NC(=O)CCCCCN(C)C(=O)CCCCC5SCC6NC(=O)NC65)C(OC)C4OC)C(OS(=O)(=O)O)C3OS(=O)(=O)O)C(OC)C2OC)C(OS(=O)(=O)O)C1OS(=O)(=O)O (centres unmarked) [Compound 3, sodium salt] too.
**A:** 1.8

**Q:** Check COC1OC(COS(=O)(=O)O)C(OC2OC(C(=O)O)C(OC3OC(COS(=O)(=O)O)C(OC4OC(C(=O)O)C(OC5OC(COS(=O)(=O)O)C(OC)C(OC)C5NC(=O)CCCCCNC(=O)CCCCC5SCC6NC(=O)NC65)C(OC)C4OC)C(OS(=O)(=O)O)C3OS(=O)(=O)O)C(OC)C2OC)C(OS(=O)(=O)O)C1OS(=O)(=O)O (centres unmarked) [Idrabiotaparinux, idrabiotaparinux, reference compound] too.
**A:** 2.6

**Q:** Check COC1OC(COS(=O)(=O)O)C(OC2OC(C(=O)O)C(OC3OC(COS(=O)(=O)O)C(OC4OC(C(=O)O)C(OC5OC(COS(=O)(=O)O)C(OC)C(OC)C5NC(=O)CCCCCN(C)CCCCCC5SCC6NC(=O)NC65)C(OC)C4OC)C(OS(=O)(=O)O)C3OS(=O)(=O)O)C(OC)C2OC)C(OS(=O)(=O)O)C1OS(=O)(=O)O (centres unmarked) [Compound 2, sodium salt] too.
**A:** 5.2

**Q:** Check COC1OC(COS(=O)(=O)O)C(OC2OC(C(=O)O)C(OC3OC(COS(=O)(=O)O)C(OC4OC(C(=O)O)C(OC5OC(COS(=O)(=O)O)C(OC)C(OC)C5NC(=O)CCCCNC(=O)NCCCCC5SCC6NC(=O)NC65)C(OC)C4OC)C(OS(=O)(=O)O)C3OS(=O)(=O)O)C(OC)C2OC)C(OS(=O)(=O)O)C1OS(=O)(=O)O (centres unmarked) [Compound 4, sodium salt] too.
**A:** 4.5
